- subject-of-test: T1, NP-1/Fc (R&D Systems)
- T1 construct: Bought reagent; also called Neuropilin-1/Fc; Npn-1
- method-description: fluorescence polarization, competition of OG-labeled D41 binding to NP-1/Fc
assay-endpoint: pIC50
When answering, recall that pIC50 equals minus log10 of the concentration in mol/L, and write that number alone.

Which measured pIC50 value corresponds to TKPPR (also called D45; TKPPR-OH) [TKPPR (L-threonyl-L-lysyl-L-prolyl-L-prolyl-L-arginine)] ? 4.10

The reported measurements were obtained from patent US20060153775A1.
